Kindly supply the reported inhibition values for the records listed here.
biological target: Glycogen synthase kinase-3 alpha (Homo sapiens); conditions: at 0.1 µM;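 note: values are mean inhibition of GSK3A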
Numbers only, in %.

Worked examples, 3 compounds total:
| compound | inhibition (%) |
| --- | --- |
| CCn1c(-c2nonc2N)nc2c(N3CCCC3)nccc21 | 1.82 |
| c1cnn2ncc(-c3ccnc(Nc4ccc5c(c4)OCCO5)n3)c2c1 | 75.6 |
| Cc1cc(O)cc(C)c1/C=C/c1cncc(-c2nn[nH]n2)c1 | -2.04 |

Dear reader, for each entry below, please note its inhibition.
1. CCn1c(-c2nonc2N)nc2c(C#CC(C)(C)O)nc(CN3CCCC3)cc21
2. CS(=O)(=O)Nc1ccc(N/C=C2\C(=O)Nc3ccccc32)cc1
3. NCc1ccc(-c2nc(-c3ccc(Cl)c(O)c3)c(-c3ccncc3)[nH]2)cc1

1. 5.1
2. 7.94
3. 4.59

Dear reader, for each entry below, please note its inhibition.
1. NS(=O)(=O)c1cccc(-c2ccc3c(NC(=O)C4CC4)n[nH]c3c2)c1
2. O=C1NC(=O)C(c2ccc(Cl)cc2)=C1Nc1ccc(Cl)c(C(=O)O)c1
3. Cc1ccc(NC(=O)c2ccnc(N3CCCC3)c2)cc1-c1ccc(C(=O)NCC2CC2)cc1

1.01
21.4
1.33

Dear reader, for each entry below, please note its inhibition.
1. O=C(Nc1n[nH]c2nc(-c3ccco3)c(Br)cc12)C1CC1
2. CCn1c(-c2nonc2N)nc2cncc(C(=O)N3CCNCC3)c21

1: 36.9; 2: 2.98

====

target: Leukocyte tyrosine kinase receptor (Homo sapiens); conditions: at 0.1 µM
Description: GSK_PKIS: LTK mean inhibition at 0.1 uM [Nanosyn]
Kindly supply the reported inhibition values for the records listed here.
Answers are plain numbers, in %.

Worked examples, 3 compounds total:
| entrySmiles | unitString | inhibition |
| --- | --- | --- |
| [O-][S+]1CCN(Cc2ccc(-c3ccc4ncnc(Nc5ccc(OCc6ccccc6)c(F)c5)c4c3)o2)CC1 | % | 2.21 |
| CS(=O)(=O)CCN(CC#N)Cc1ccc(-c2ccc3ncnc(Nc4ccc(OCc5cccc(F)c5)c(Cl)c4)c3c2)o1 | % | 1.4 |
| CS(=O)(=O)CCNCc1ccc(-c2ccc3ncnc(Nc4ccc(OCc5ccccc5)c(Cl)c4)c3c2)o1 | % | 0.32 |

Dear reader, for each entry below, please note its inhibition.
1. O=C(Nc1n[nH]c2nc(-c3ccco3)c(Br)cc12)C1CC1
2. CCCN1CCC(Oc2cc(Nc3nc(Nc4cccc(F)c4C(N)=O)c4cc[nH]c4n3)c(OC)cc2Cl)CC1
3. COc1cc2ncn(-c3cc(O[C@@H](C)c4ccccc4Cl)c(C(N)=O)s3)c2cc1OC
4. COc1ccc(COc2ccc(Cc3cnc(N)nc3N)cc2OC)cc1

1: 1.93; 2: 16.4; 3: 3.53; 4: -1.03

Dear reader, for each entry below, please note its inhibition.
1. CCn1c(-c2nonc2N)nc2c(N3CCCC3)nccc21
2. Cc1ccc(C(=O)NC2CCCCC2)cc1-c1ccc(C(=O)NCC2CC2)cc1

1: 0.51; 2: 0.67

Dear reader, for each entry below, please note its inhibition.
1. N#Cc1c(NC(=O)c2cccc3ccccc23)sc2c1CCCC2
2. Cc1cccc(-c2n[nH]cc2-c2ccc3ncccc3n2)n1

1. 2.58
2. 0.62

====

Target: Dual specificity tyrosine-phosphorylation-regulated kinase 2 (Homo sapiens) (UniProt Q92630);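 note: values are mean percent inhibition of DYRK2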
Sequence (whole entry): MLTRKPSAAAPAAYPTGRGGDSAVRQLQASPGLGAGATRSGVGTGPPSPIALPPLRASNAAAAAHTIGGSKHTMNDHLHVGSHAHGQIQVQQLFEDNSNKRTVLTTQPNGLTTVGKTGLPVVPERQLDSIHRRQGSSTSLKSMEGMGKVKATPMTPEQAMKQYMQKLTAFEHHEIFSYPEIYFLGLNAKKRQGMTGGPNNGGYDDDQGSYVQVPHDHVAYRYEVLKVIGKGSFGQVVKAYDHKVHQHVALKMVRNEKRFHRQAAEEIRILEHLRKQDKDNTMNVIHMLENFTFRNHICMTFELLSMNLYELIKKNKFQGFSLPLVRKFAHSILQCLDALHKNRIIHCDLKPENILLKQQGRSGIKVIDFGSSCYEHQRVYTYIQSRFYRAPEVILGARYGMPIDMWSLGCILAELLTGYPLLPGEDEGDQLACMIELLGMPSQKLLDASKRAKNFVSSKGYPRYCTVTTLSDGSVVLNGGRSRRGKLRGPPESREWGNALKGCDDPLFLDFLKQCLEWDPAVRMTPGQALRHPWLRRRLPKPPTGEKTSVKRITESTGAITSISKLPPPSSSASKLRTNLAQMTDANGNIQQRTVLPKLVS
Conditions: at 0.1 µM
Kindly supply the reported inhibition values for the records listed here.
Answers are plain numbers, in %.

Worked examples, 2 compounds total:
| compound | resultNumber |
| --- | --- |
| CC1=C(C(=O)Nc2ccc3[nH]ncc3c2)C(c2ccc(F)cc2)NC(=O)N1 (stereo not drawn) | 0.94 |
| Fc1cccc(COc2ccc(Nc3ncnc4cc(-c5ccc[nH]5)sc34)cc2Cl)c1 | 1.57 |

For the next question, use this compound.
Entry `O=C1NC(=O)C(c2ccc(Cl)cc2)=C1Nc1ccc(Cl)c(C(=O)O)c1` ; inhibition = -2.12

Data provenance is ChEMBL document CHEMBL1961873.
